# Test system: SF-539 CNS
# ASSAY TEXT: NCI tumour cell line growth inhibition, 48 h
Each entry below lists one item and its recorded TGI value.

| COMPOUND | TGT | TGI |
| --- | --- | --- |
| COC(=O)[C@H](Cc1c[nH]c2ccccc12)NC(=O)c1ccc(CNC(=O)/C(C)=C/c2ccccc2)cc1 | SF-539 CNS | > 100 µM |

Query compound follows.
Tested on SF-539 CNS: `c1ccc(NN=C(c2ccccn2)c2ccccn2)nc1` . Observed TGI: > 47.5 µM

====

# Tested on: MDA-MB-435
# ASSAY TEXT: NCI tumour cell line growth inhibition, 48 h
Each entry below lists one item and its recorded TGI value.

| COMPOUND | ENDPOINT VALUE |
| --- | --- |
| COc1ccc2c(c1)nc1n2C(c2c(Cl)cccc2Cl)SC1 (centres undefined) | > 23.6 µM |
| COc1ccc2c(c1)C(=O)OCCC2 | > 100 µM |
| C=C1C(=O)OC2CC(C)C3(O)CCC(=O)C3(C)CC12 (centres undefined) | > 100 µM |
| COc1ccc(-c2ccc(-c3ccc(C(=N)N)s3)s2)cc1 | 0.336 µM |
| Cc1cc(C)c(NC(=O)c2sc3nc4c(cc3c2N)CN(Cc2ccccc2)CC4)c(C)c1 | 4.38 µM |
| COc1ccc(NC(=O)N(C)CC2(O)CCC(C(C)(C)C)CC2)cc1 (centres undefined) | > 100 µM |
| O=C(O)c1ccc(OCc2ccccc2)c(Cl)c1 | > 100 µM |
| CNC(=S)N=Nc1c(O)n(CN2CCOCC2)c2ccc([N+](=O)[O-])cc12 | > 100 µM |
| CC1(C)CC(=O)C(C=NC(=O)c2ccncc2)=C(O)C1 | > 100 µM |
| COc1c(OC(C)=O)c(OC(C)=O)cc2c1-c1ccc(SC)c(=O)cc1C(NC(C)=O)CC2 (centres undefined) | 0.632 µM |

Per the record, Cc1nn(C(=O)c2ccc(Cl)cc2)c2c1C(/C=C/c1ccccc1)SC(N)=N2 (centres undefined) has TGI of > 10 µM

Per the record, `c1ccc(NN=C(c2ccccn2)c2ccccn2)nc1` has TGI of > 100 µM

Per the record, CC(CO)CCNc1ncnc2c1ncn2CCC(=O)OC(C)(C)C (centres undefined) has TGI of > 100 µM

The reported numbers originate from PubChem BioAssay (NCI).
